Target: Neuronal acetylcholine receptor; alpha3/beta4 (Homo sapiens, UniProt P30926+P32297)
Sequence (P30926 whole entry): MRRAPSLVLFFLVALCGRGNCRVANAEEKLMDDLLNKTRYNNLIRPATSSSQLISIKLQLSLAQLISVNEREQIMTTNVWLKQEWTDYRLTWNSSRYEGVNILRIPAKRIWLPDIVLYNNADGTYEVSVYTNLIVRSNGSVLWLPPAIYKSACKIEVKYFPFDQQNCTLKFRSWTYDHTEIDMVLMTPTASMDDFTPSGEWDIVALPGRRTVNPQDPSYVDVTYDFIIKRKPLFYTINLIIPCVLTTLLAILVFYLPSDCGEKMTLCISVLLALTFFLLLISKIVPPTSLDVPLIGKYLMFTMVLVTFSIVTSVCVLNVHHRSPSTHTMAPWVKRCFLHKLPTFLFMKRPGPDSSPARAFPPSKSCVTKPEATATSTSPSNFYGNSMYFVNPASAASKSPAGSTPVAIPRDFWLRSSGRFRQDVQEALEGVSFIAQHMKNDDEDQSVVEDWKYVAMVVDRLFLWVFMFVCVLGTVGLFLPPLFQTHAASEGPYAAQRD
Sequence (P32297 whole entry): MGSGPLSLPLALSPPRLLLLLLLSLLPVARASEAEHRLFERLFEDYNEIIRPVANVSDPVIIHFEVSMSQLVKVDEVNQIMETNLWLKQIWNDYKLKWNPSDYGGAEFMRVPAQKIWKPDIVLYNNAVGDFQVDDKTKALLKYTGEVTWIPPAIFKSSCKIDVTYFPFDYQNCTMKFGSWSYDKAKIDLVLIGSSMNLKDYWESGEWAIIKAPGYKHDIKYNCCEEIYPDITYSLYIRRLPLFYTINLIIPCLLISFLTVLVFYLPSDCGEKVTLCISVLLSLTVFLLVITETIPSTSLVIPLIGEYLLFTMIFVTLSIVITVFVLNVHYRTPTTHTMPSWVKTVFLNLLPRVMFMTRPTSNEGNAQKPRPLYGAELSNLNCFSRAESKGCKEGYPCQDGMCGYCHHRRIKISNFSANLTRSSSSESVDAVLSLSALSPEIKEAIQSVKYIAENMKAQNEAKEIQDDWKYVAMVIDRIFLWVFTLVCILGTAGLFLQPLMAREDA
Test: Displacement of [3H]epibatidine from alpha3beta4 nicotinic receptor expressed in human HEK293 cells
For each record, check the reported Ki: if it is below 1 nM write Y, else write N.

- MOLECULE: "Cl.Oc1cncc(-c2ccccc2O[C@H]2C[C@@H]3CNC[C@H]2C3)c1"
  CATEGORY: "Y"
- MOLECULE: "COc1ccncc1-c1ccccc1O[C@H]1C[C@@H]2CNC[C@H]1C2.Cl (racemic)"
  CATEGORY: "Y"
- MOLECULE: "Cl.Fc1ccncc1-c1ccccc1O[C@H]1C[C@@H]2CNC[C@H]1C2 (racemic)"
  CATEGORY: "Y"
- MOLECULE: "Cl.c1cncc(-c2ccccc2O[C@H]2C[C@@H]3CNC[C@H]2C3)c1 (racemic)"
  CATEGORY: "N"
- MOLECULE: "Cl.Nc1ccncc1-c1ccccc1O[C@H]1C[C@@H]2CNC[C@H]1C2 (racemic)"
  CATEGORY: "Y"
- MOLECULE: "Cl.Nc1cncc(-c2ccccc2O[C@H]2C[C@@H]3CNC[C@H]2C3)c1 (racemic)"
  CATEGORY: "N"
